- target-under-test: Aurora kinase B (Homo sapiens, UniProt Q96GD4)
- Sequence (Q96GD4 whole entry): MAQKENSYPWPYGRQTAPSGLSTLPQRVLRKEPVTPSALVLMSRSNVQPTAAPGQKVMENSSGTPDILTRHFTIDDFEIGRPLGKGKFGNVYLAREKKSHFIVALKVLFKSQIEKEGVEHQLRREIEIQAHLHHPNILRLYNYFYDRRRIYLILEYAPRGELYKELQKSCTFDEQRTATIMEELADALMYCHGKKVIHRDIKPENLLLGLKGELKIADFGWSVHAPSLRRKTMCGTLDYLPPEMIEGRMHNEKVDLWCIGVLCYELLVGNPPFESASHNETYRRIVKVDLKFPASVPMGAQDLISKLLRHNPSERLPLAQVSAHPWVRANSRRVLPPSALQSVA
- test-method-notes: Inhibition of Aurora B in human HCT116 cells assessed as reduction in phosphorylation of Histone H3 at Ser10 residue incubated for 1 hr by Hoechst 33342 dye-based immunofluorescence microscopic method
- Assay type: cell-based
Collected EC50 values appear next to each entry.
observed-property: EC50 (nM)

>>> observed_value("Cc1cn2c(-c3cn[nH]c3)cnc2c(Nc2cc(Cc3cnccn3)ns2)n1")
208
>>> observed_value("Cc1cn2c(-c3cn[nH]c3)cnc2c(Nc2cc(Cc3ccccn3)ns2)n1")
117
>>> observed_value("Cc1cn2c(-c3cn[nH]c3)cnc2c(Nc2cc(Cc3cccc(CN4CCCCC4)n3)ns2)n1")
289
>>> observed_value("COc1cccc(Cc2cc(Nc3nc(C)cn4c(-c5cn[nH]c5)cnc34)sn2)n1")
356
